Details: in acetonitrile, 283.15 K
MEASURED_METRIC: solubility (mole fraction)
Number, no unit, nothing else.

Query: Report solubility (mole fraction) for CC[C@H](C)[C@H](N)C(=O)O please.
Response: 0.000153

---

Conditions: in methyl acetate, 323.15 K
MEASURED_METRIC: solubility (mole fraction)

Query: Report solubility (mole fraction) for CC[C@H](C)[C@H](N)C(=O)O please.
Response: 0.00545

---

Details: in n-butanol, 288.15 K
MEASURED_METRIC: solubility (mole fraction)

Query: Report solubility (mole fraction) for CC[C@H](C)[C@H](N)C(=O)O please.
Response: 0.000142
